test: Cytotoxicity against human HCE2 cells incubated for 2 hrs by MTT assay; format: cell-based
measure: IC50

>>> recorded_value("COc1ccc2cc(F)nc(N3CCN(CC(O)CNc4cc(=O)oc5ccc(F)cc45)CC3)c2c1 (racemic)")
"> 150 µM"

* * *

test system: Pseudomonas aeruginosa; assay: Antibacterial activity against Pseudomonas aeruginosa ATCC 27853 after 16 to 24 hrs by CLSI method; format: functional
measure: MIC (µg/mL)

>>> recorded_value("O=c1nc(NCC(O)CN2CCN(c3nc(F)cc4ccc(F)cc34)CC2)c2cc(F)ccc2o1 (racemic)")
2
>>> recorded_value("O=c1cc(NCCCN2CCN(c3nccc4ccccc34)CC2)c2cc(Cl)ccc2o1")
4
>>> recorded_value("O=c1cc(NC[C@H](O)CN2CCN(c3nccc4ccc(F)cc34)CC2)c2ccccc2o1")
8
>>> recorded_value("O=c1nc(NCC(O)CN2CCN(c3nccc4ccc(F)cc34)CC2)c2cc(F)ccc2o1 (racemic)")
4
>>> recorded_value("O=c1cc(NCC(O)CN2CCN(c3nccc4ncccc34)CC2)c2cc(F)ccc2o1 (racemic)")
8
>>> recorded_value("O=c1cc(NC[C@@H](O)CN2CCN(c3nccc4ccc(F)cc34)CC2)c2ccccc2o1")
4
>>> recorded_value("COc1ccc2cc(F)nc(N3CCN(CC(O)CNc4cc(=O)oc5ccc(F)cc45)CC3)c2c1 (racemic)")
4

* * *

target: DNA topoisomerase 4 subunit A (Escherichia coli K-12, UniProt P0AFI2); test: Inhibition of Escherichia coli ATCC 25922 DNA topoisomerase 4 subunit ParC assessed as reduction in decatenation of kinetoplast DNA incubated for 30 mins by ethidium bromide staining based gel electrophoresis method
Sequence (P0AFI2 whole entry): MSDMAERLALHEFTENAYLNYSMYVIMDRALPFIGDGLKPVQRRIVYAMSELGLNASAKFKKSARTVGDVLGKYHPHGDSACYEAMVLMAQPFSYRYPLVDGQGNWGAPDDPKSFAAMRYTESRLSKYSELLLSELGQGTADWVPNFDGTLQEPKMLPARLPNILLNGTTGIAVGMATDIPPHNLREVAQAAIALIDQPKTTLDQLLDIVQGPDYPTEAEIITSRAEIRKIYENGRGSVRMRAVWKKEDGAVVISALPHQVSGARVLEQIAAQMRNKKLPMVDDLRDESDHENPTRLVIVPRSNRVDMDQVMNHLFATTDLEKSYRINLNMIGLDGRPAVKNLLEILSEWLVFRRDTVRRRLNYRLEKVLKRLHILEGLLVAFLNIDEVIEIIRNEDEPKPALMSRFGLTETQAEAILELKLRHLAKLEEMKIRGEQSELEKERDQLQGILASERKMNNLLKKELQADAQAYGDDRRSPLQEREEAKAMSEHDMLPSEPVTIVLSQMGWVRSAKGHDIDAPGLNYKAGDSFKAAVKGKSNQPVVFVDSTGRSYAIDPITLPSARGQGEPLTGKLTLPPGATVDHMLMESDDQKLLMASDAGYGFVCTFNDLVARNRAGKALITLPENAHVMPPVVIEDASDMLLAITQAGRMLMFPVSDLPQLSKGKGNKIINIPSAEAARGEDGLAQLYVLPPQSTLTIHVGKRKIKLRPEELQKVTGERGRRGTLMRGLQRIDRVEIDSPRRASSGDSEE
Response field class: enum, chosen by comparing IC50 against LOW = under 2000 nM, MEDIUM = from 2000 nM up to 7000 nM, HIGH = 7000 nM and over

>>> assigned_category("O=c1cc(NCC(O)CN2CCN(c3nccc4ncccc34)CC2)c2cc(F)ccc2o1 (racemic)")
"LOW"
>>> assigned_category("O=c1nc(NCC(O)CN2CCN(c3nccc4ccc(F)cc34)CC2)c2cc(F)ccc2o1 (racemic)")
"LOW"
>>> assigned_category("O=c1cc(CC(O)CCN2CCN(c3nccc4ccc(F)cc34)CC2)c2ccccc2o1 (racemic)")
"MEDIUM"
>>> assigned_category("O=c1cc(NCCCN2CCN(c3nccc4ccccc34)CC2)c2cc(Cl)ccc2o1")
"LOW"
>>> assigned_category("O=c1cc(NCCN2CCN(c3nccc4ccccc34)CC2)c2ccccc2o1")
"MEDIUM"
>>> assigned_category("O=c1cc(NCCCN2CCN(c3nccc4ccc(Cl)cc34)CC2)c2ccccc2o1")
"MEDIUM"
>>> assigned_category("O=c1cc(NCCCN2CCN(c3nccc4ccc(F)cc34)CC2)c2c(o1)CCNC2")
"HIGH"
>>> assigned_category("O=c1cc(NCCCN2CCN(c3nccc4ccccc34)CC2)c2c(o1)CCCC2")
"HIGH"
>>> assigned_category("CN(CCCN1CCN(c2nccc3ccccc23)CC1)c1cc(=O)oc2ccccc12")
"HIGH"
>>> assigned_category("N#Cc1ccc2ccnc(N3CCN(CCCNc4cc(=O)oc5ccccc45)CC3)c2c1")
"LOW"
>>> assigned_category("O=c1cc(NCCCN2CCN(c3nc(F)cc4ccccc34)CC2)c2ccccc2o1")
"LOW"
>>> assigned_category("Cc1ccc2ccnc(N3CCN(CCCNc4cc(=O)oc5ccccc45)CC3)c2c1")
"MEDIUM"
>>> assigned_category("COc1ccc2ccnc(N3CCN(CCCNc4cc(=O)oc5ccccc45)CC3)c2c1")
"LOW"
>>> assigned_category("CN(C)c1ccc2ccnc(N3CCN(CCCNc4cc(=O)oc5ccccc45)CC3)c2c1")
"HIGH"
